Test system: A. baumannii 1258916
TEST SUMMARY: microbe, parasite or virus in culture
Format: cell-based, Acinetobacter baumannii
EXPERIMENTAL CONDITIONS: Acinetobacter baumannii, 1258916, read-out: MIC, A. baumannii 1258916
VALUE TYPE: MIC

Below, 2 compounds whose answers are already recorded.
{"COMPOUND": "O=C(CN1CCN(C(=O)NC(C(=O)N[C@H]2Cc3ccc(F)c(C(=O)O)c3OB2O)c2cc(F)c(O)c(O)c2Cl)C(=O)C1=O)NCc1cccc(O)c1 (stereo partly drawn) [Example 237]", "MIC": "2 to 4 µg/mL"}
{"COMPOUND": "O=C(O)c1c(F)ccc2c1OB(O)[C@@H](NC(=O)C(NC(=O)N1CCN(Cc3ccc(O)c(O)c3Cl)C(=O)C1=O)c1ccc(P(=O)(O)O)cc1)C2 (stereo partly drawn) [Example 8]", "MIC": "< 1 µg/mL"}

Request: MIC, test system A. baumannii 1258916, entry O=C(CN1CCN(C(=O)NC(C(=O)N[C@H]2Cc3ccc(F)c(C(=O)O)c3OB2O)c2cc(F)c(O)c(O)c2Cl)C(=O)C1=O)Nc1ccccc1 (stereo partly drawn) [Example 232]
2 to 4 µg/mL

API: value(readout=MIC, system=A. baumannii 1258916) for record O=C(NCCN1CCN(C(=O)NC(C(=O)N[C@H]2Cc3ccc(F)c(C(=O)O)c3OB2O)c2cc(F)c(O)c(O)c2Cl)C1=O)c1ccncc1 (stereo partly drawn) [Example 245]
< 1 µg/mL

Request - read-out MIC | tested on A. baumannii 1258916 | compound O=C(NCCCN1CCN(C(=O)NC(C(=O)N[C@H]2Cc3ccc(F)c(C(=O)O)c3OB2O)c2cc(F)c(O)c(O)c2Cl)C(=O)C1=O)c1ccncc1F (stereo partly drawn) [Example 400]
2 to 4 µg/mL

Hello, I am looking for reported MIC with A. baumannii 1258916 for O=C(O)c1c(F)ccc2c1OB(O)[C@@H](NC(=O)[C@H](NC(=O)N1CCN(C3CCN(C(=O)c4cc(O)cc(O)c4)CC3)C1=O)c1cc(F)c(O)c(O)c1Cl)C2 (single isomer, unassigned) [Example 442] . Could you help?
< 1 µg/mL

Query for A. baumannii 1258916: what MIC does the record show for CN(CCN1CCN(C(=O)N[C@@H](C(=O)N[C@H]2Cc3ccc(F)c(C(=O)O)c3OB2O)c2cc(F)c(O)c(O)c2Cl)C(=O)C1=O)Cc1ccc(N)nc1 [Example 209] ?
< 1 µg/mL

GET /values?readout=MIC&system=A. baumannii 1258916&item= O=C(O)c1c(F)ccc2c1OB(O)[C@@H](NC(=O)C(NC(=O)N1CCN(C3CCN(C(=O)Nc4cc(O)cc(F)c4)CC3)C(=O)C1=O)c1cc(F)c(O)c(O)c1Cl)C2 (stereo partly drawn) [Example 481]
< 1 µg/mL

// lookup MIC | system=A. baumannii 1258916 | key= O=C(NCCCS(=O)(=O)N1CCN(C(=O)NC(C(=O)N[C@H]2Cc3ccc(F)c(C(=O)O)c3OB2O)c2cc(F)c(O)c(O)c2Cl)C1=O)Nc1ccncc1 (stereo partly drawn) [Example 291]
< 1 µg/mL

Quick check: MIC on A. baumannii 1258916, item O=C(O)c1c(F)ccc2c1OB(O)[C@@H](NC(=O)C(NC(=O)N1CCN(C3CCN(C(=O)Cc4cccc(O)c4)CC3)C(=O)C1=O)c1cc(F)c(O)c(O)c1Cl)C2 (stereo partly drawn) [Example 474] ?
< 1 µg/mL

Missing value: MIC, A. baumannii 1258916, entry O=C(O)c1c(F)ccc2c1OB(O)[C@@H](NC(=O)C(NC(=O)N1CCN(C3CCN(S(=O)(=O)Cc4cccc(O)c4)CC3)C(=O)C1=O)c1cc(F)c(O)c(O)c1Cl)C2 (stereo partly drawn) [Example 485] . Fill in?
< 1 µg/mL

Return MIC measured with A. baumannii 1258916 given this compound: O=C(NCCCS(=O)(=O)N1CCN(C(=O)NC(C(=O)N[C@H]2Cc3ccc(F)c(C(=O)O)c3OB2O)c2cc(F)c(O)c(O)c2Cl)C1=O)Nc1ccc(O)cc1 (stereo partly drawn) [Example 276]
< 1 µg/mL

Lab request: please report MIC under test system A. baumannii 1258916 for O=C(NCCCN1CCN(C(=O)N[C@@H](C(=O)N[C@H]2Cc3ccc(F)c(C(=O)O)c3OB2O)c2cc(F)c(O)c(O)c2Cl)C(=O)C1=O)c1cc(F)nc(F)c1 (racemic) [Example 401]
< 1 µg/mL

Given the entry O=C(NCCN1CCN(C(=O)N[C@@H](C(=O)N[C@H]2Cc3ccc(F)c(C(=O)O)c3OB2O)c2cc(F)c(O)c(O)c2Cl)C(=O)C1=O)Nc1ccncc1 [Example 221] , what MIC was observed with A. baumannii 1258916?
2 to 4 µg/mL

# returns recorded MIC (system: A. baumannii 1258916) for O=C(O)c1c(F)ccc2c1OB(O)[C@@H](NC(=O)[C@H](NC(=O)N1CCN(C3CCN(C(=O)Nc4cc(O)cc(F)c4)CC3)C1=O)c1cc(F)c(O)c(O)c1Cl)C2 (single isomer, unassigned) [Example 450]
< 1 µg/mL

Give A. baumannii 1258916 MIC for O=C(NCCCN1CCN(C(=O)NC(C(=O)N[C@H]2Cc3ccc(F)c(C(=O)O)c3OB2O)c2cc(F)c(O)c(O)c2Cl)C(=O)C1=O)c1ccncc1 (stereo partly drawn) [Example 205]
< 1 µg/mL

Test system A. baumannii 1258916; read-out MIC; what value for O=C(O)c1c(F)ccc2c1OB(O)[C@@H](NC(=O)[C@H](NC(=O)N1CCN(C3CCN(C(=O)c4cc(O)c(F)c(O)c4)CC3)C1=O)c1cc(F)c(O)c(O)c1Cl)C2 (single isomer, unassigned) [Example 443] ?
< 1 µg/mL

Recall the recorded MIC for O=C(CN1CCN(C(=O)NC(C(=O)N[C@H]2Cc3ccc(F)c(C(=O)O)c3OB2O)c2cc(F)c(O)c(O)c2Cl)C(=O)C1=O)NCc1ccc(O)cc1 (stereo partly drawn) [Example 236] with A. baumannii 1258916 and state it.
2 to 4 µg/mL

Give A. baumannii 1258916 MIC for O=C(NCCCN1CCN(C(=O)NC(C(=O)N[C@H]2Cc3ccc(F)c(C(=O)O)c3OB2O)c2cc(F)c(O)c(O)c2Cl)C1=O)Nc1ccncc1 (stereo partly drawn) [Example 285]
2 to 4 µg/mL

Provide value of MIC for this record tested with A. baumannii 1258916: O=C(O)c1c(F)ccc2c1OB(O)[C@@H](NC(=O)C(NC(=O)N1CCN(CCNC(=O)[C@@H]3CCCN3)C1=O)c1cc(F)c(O)c(O)c1Cl)C2 (stereo partly drawn) [Example 248]
< 1 µg/mL

API: value(readout=MIC, system=A. baumannii 1258916) for record O=C(NCCCN1CCN(C(=O)N[C@@H](C(=O)N[C@H]2Cc3ccc(F)c(C(=O)O)c3OB2O)c2cc(F)c(O)c(O)c2Cl)C(=O)C1=O)c1cc(F)c(O)cc1F (single isomer, unassigned) [Example 473]
2 to 4 µg/mL

Source of measurements: patent US20240270762A1
